# measured-target: CDK2/CycE (Homo sapiens, UniProt P24941)
# Construct: GST; purchased ProQinase GmbH (Freiburg, Germany); host or cells: insect cells (Sf9)
# experimental-protocol: CDK2/CycE kinase assay (TR-FRET, Method 2a)
# Assay type: biochemical
# condition-details: 10 μM ATP
parameter: IC50 (nM)
One number for each entry, in nM.

Quick request: IC50 for each listed item, please.
1. C[S+]([O-])Cc1cc2nc(c1)OCCCOc1cc(F)ccc1-c1cc(ncc1F)N2 (racemic)
2. CSCc1cc2cc(c1)OCCCOc1cc(F)ccc1-c1nc(ncc1F)N2
3. NCCS(=O)(=O)Cc1cc2nc(c1)OCCCOc1cc(F)ccc1-c1cc(ncc1F)N2
4. CS(=O)(Cc1cc2cc(c1)OCCCOc1cc(F)ccc1-c1nc(ncc1F)N2)=NC(=O)C(F)(F)F (racemic)

[out]
4.6
97.8
10
58.2
